Reference source for all entries: patent US20250136692A1

Target: hPD-1-HIS (human) (UniProt Q15116)
Sequence (Q15116 25-167 limits assumed): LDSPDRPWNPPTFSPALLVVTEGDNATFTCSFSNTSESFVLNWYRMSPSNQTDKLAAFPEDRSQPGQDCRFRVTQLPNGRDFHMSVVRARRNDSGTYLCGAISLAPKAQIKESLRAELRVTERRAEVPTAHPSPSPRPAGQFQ
Experiment: ELISA, plate-coated PD-1 protein, protocol of Example 1
observation.type: hPD-1-HIS Binding (OD 450)
All answers are understood in OD 450, so give the number only.

Consider the following illustrative entries.
5C2-7 (antibody, human IgG1, kappa, V domains shown) VH: QVQLVQSGAEVKKPGASVKVSCKASGYTFTSYWMHWVRQAPGMGLEWMGRIHPIYRDTNYNQKFKGRVTLTVDTSTSTAYMELSSLRSEDTAVYYCAPYVNYGDGFAYWGQGTLVTVSS VL: DIQMTQSPSTLSASVGDRVTITCRASQDVSTALAWYQQKPGKAPKLLIYWASTRHIGVPDRFSGSGSGTDFTLTISSLQPEDFATYYCHQDYITPRTFGGGTKVEIKR : 0.264
5C2-5 (antibody, human IgG1, kappa, V domains shown) VH: QVQLVQSGAEVKKPGASVKVSCKASGYTFGIYWMHWVRQAPGQGLEWMGRILPSNGYTNYNQKFKGRVTLTVDTSTSTAYMELSSLRSEDTAVYYCAPYGIYTRDFSHWGQGTLVTVSS VL: DIQMTQSPSSLSASVGDRVTITCRASQDVSTALAWYQQKPGKAPKLLIYWASTRHSGVPDRFSGSGSGTDFTLTISSLQPEDFATYYCQQRDTTPRTFGGGTKVEIKR : 0.286
5C2-9 (antibody, human IgG1, kappa, V domains shown) VH: QVQLVQSGAEVKKPGASVKVSCKASGQTFTNYLMHWVRQAPGQGLEWMGRIPLSDRDTNYNQKFKGRVTLTVDTSTSTAYMELSSLRSEDTAVYYCAPYGRSASGFSSWGQGTLVTVSS VL: DIQMTQSPSSLSASVGDRVTITCRASQDVSTALAWYQQKPGKAPKLLIYWASTRHSGVPDRFSGSGSGTDFTLTISSLQPEDFATYYCQQGSSTPLTFGGGTKVEIKR : 0.255
5C2-6 (antibody, human IgG1, kappa, V domains shown) VH: QVQLVQSGAEVKKPGASVKVSCKASGYTFTSYWMHWVRQAPGQGLEWMGRIHPSDSDTNYNQKFKGRVTLTVDTSTSTAYMELSSLRSEDTAVYYCAPYVDLESGFAYWGQGTLVTVSS VL: DIAMTQTPSSLSASIGDRVTIACRASQGISSALAWYQQKPGRTPKLLIFDASTLQSGVPSRFSGSGSGTDFTLTISSLQPEDFATYYCQQFNTYSSVTFGQGTRLEIKR : 0.267

QUERY: Need hPD-1-HIS Binding (OD 450) of 5C2-4 (antibody, human IgG1, kappa, V domains shown) VH: QVQLVQSGAEVKKPGASVKVSCKASGYTFTRYWMHWVRQAPGQGLEWMGRIHPTDSVTNYNQKFKGRVTLTVDTSTSTAYMELSSLRSEDTAVYYCAPDVNYARAFAHWGQGTLVTVSS VL: DIQMTQSPSSLSASVGDRVTITCRASQDVSTALAWYQQKPGKAPKLLIYWASTRHSGVPDRFSGSGSGTDFTLTISSLQPEDFATYYCQQHYGSPWTFGGGTKVEIKR , thanks.
RESULT: 0.312
